// values below are reported Predicted Hepatic Clearance (Pred. Cl.)
# run-description: Microsomal stability, human liver microsomes (predicted hepatic clearance)
# run-parameters: predicted from in vitro microsomal stability data
parameter: Predicted Hepatic Clearance (Pred. Cl.) (mL/min/kg)

chemical-string	parameter	quantitative-readout
N#Cc1ccc(COc2cccc(-c3ccc(Cc4nc5ccc(C(=O)O)cc5n4CCOC(F)F)c(F)c3)n2)c(F)c1	Predicted Hepatic Clearance (Pred. Cl.)	2.83
N#Cc1ccc(COc2cccc(-c3cc(F)c(Cc4nc5ccc(C(=O)O)cc5n4[C@@H]4CCC(F)(F)C4)cc3F)n2)c(F)c1	Predicted Hepatic Clearance (Pred. Cl.)	4.67
COCCn1c(Cc2cc(F)c(-c3cccc(OCc4ccc(-c5cnccn5)cc4F)n3)cc2F)nc2ccc(C(=O)O)cc21	Predicted Hepatic Clearance (Pred. Cl.)	1.83
N#Cc1ccc(COc2cccc(-c3cc(F)c(Cc4nc5ccc(C(=O)O)cc5n4CCN4CCOCC4)cc3F)n2)c(F)c1	Predicted Hepatic Clearance (Pred. Cl.)	9.5
N#Cc1ccc(COc2cccc(-c3ccc(Cc4nc5ccc(C(=O)O)cc5n4Cc4ncco4)nc3)n2)c(F)c1	Predicted Hepatic Clearance (Pred. Cl.)	3.83
N#Cc1ccc(COc2nccc(-c3cc(F)c(Cc4nc5ccc(C(=O)O)cc5n4C[C@@H]4CCO4)c(F)c3)n2)c(F)c1	Predicted Hepatic Clearance (Pred. Cl.)	2.67
Cc1cc(Cn2c(Cc3ccc(-c4cccc(OCc5ccc(C#N)cc5F)n4)cc3F)nc3ccc(C(=O)O)cc32)no1	Predicted Hepatic Clearance (Pred. Cl.)	1.83
CC(=O)NCCn1c(Cc2ccc(-c3cccc(OCc4ccc(C#N)cc4F)n3)cc2F)nc2ccc(C(=O)O)cc21	Predicted Hepatic Clearance (Pred. Cl.)	3.67

====

# experimental-target: GLP-1R (Homo sapiens, UniProt P43220)
# Sequence (P43220 24-463): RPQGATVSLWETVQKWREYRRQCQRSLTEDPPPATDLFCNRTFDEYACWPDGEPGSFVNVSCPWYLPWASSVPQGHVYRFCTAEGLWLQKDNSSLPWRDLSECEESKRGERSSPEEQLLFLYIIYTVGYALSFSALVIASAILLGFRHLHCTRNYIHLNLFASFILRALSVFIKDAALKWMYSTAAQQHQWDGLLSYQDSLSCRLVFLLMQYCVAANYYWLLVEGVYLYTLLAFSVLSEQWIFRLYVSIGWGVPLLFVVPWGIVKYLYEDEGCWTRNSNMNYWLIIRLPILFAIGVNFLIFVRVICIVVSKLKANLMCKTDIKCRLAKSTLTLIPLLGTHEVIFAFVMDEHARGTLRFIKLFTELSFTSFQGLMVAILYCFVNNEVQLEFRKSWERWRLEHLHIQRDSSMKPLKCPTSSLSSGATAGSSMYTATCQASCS
# run-description: GLP-1R activation: cAMP increase in CHO cells stably expressing GLP-1R
# Type: cell-based
# run-parameters: cAMP increase, CHO cells stably expressing GLP-1R, 10 point dose response, 30 minutes incubation; read-out: EC50

compound	unit-spec	EC50
COCCn1c(Cc2ccc(-c3cc(C(F)(F)F)cc(OCc4ccc(C#N)cc4F)n3)cc2F)nc2ccc(C(=O)O)cc21 [Example 90]	µM	0.0724
N#Cc1ccc(COc2cccc(-c3cc(F)c(Cc4nc5ccc(C(=O)O)cc5n4C4CC5(COC5)C4)cc3F)n2)c(F)c1 [Example 728]	µM	0.0936
N#Cc1ccc(COc2cccc(-c3cc(F)c(Cc4nc5ccc(C(=O)O)cc5n4Cc4nncs4)cc3F)n2)c(F)c1 [Example 576]	µM	0.00086
N#Cc1ccc(COc2cccc(-c3cc(F)c(Cc4nc5ccc(C(=O)O)cc5n4CC4(F)CC4)cc3F)n2)c(F)c1 [Example 729]	µM	0.00103
CO[C@H]1CCC[C@@H]1n1c(Cc2cc(F)c(-c3cccc(OCc4ccc(C#N)cc4F)n3)cc2F)nc2ccc(C(=O)O)cc21 [Example 709]	µM	0.00477
COCCn1c(Cc2cc(F)c(-c3cccc(OCc4ccc(C5=CCNCC5)cc4F)n3)cc2F)nc2ccc(C(=O)O)cc21 [Example 901]	µM	0.16
N#Cc1ccc(COc2cccc(-c3ccc(Cc4nc5ccc(C(=O)O)cc5n4CC45CCC(CC4)O5)c(F)c3)n2)c(F)c1 [Example 231]	µM	0.0354
COCCn1c(Cc2ccc(-c3cccc(OCc4ccccc4SC)n3)cc2F)nc2ccc(C(=O)O)cc21 [Example 249]	µM	0.172
COCCn1c(Cc2ccc(-c3cccc(OCc4cccc5c4OCO5)n3)cc2F)nc2ccc(C(=O)O)cc21 [Example 362]	µM	0.0218

====

# experimental-target: GLP-1R (Homo sapiens)
# run-description: GLP-1R activation: cAMP increase in CHO cells stably expressing GLP-1R
# Assay type: cell-based
# run-parameters: cAMP increase, CHO cells stably expressing GLP-1R, 10 point dose response, 30 minutes incubation; read-out: EC50
Entries and their log10 of EC50
parameter: log10 of EC50 (log10 of the value in nM)

compound	experimental-target	parameter	quantitative-readout
CC1(Cn2c(Cc3ccc(-c4cccc(OCc5ccc(C#N)cc5F)n4)cc3F)nc3ccc(C(=O)O)cc32)CCO1 (stereo not shown) [Example 365]	GLP-1R (Homo sapiens)	log10 of EC50	-0.22
N#Cc1ccc(COc2cccc(-c3cc(F)c(Cc4nc5ccc(C(=O)O)cc5n4C4COCC4(F)F)cc3F)n2)c(F)c1 (stereo not shown) [Example 612]	GLP-1R (Homo sapiens)	log10 of EC50	-0.66
COc1cc(C#N)ncc1COc1cccc(-c2cc(F)c(Cc3nc4ccc(C(=O)O)cc4n3C[C@@H]3CCO3)cc2F)n1 [Example 850]	GLP-1R (Homo sapiens)	log10 of EC50	-0.64
COCCn1c(Cc2ccc(-c3cccc(OCc4ccc(Cl)cc4F)n3)cc2F)nc2ccc(C(=O)O)cc21 [Example 478]	GLP-1R (Homo sapiens)	log10 of EC50	0.96
COCCn1c(Cc2ccc(-c3cccc(OCc4cccc5scnc45)n3)cc2F)nc2ccc(C(=O)O)cc21 [Example 146]	GLP-1R (Homo sapiens)	log10 of EC50	1.56
N#Cc1ccc(COc2cccc(-c3cc(F)c(Cc4nc5ccc(C(=O)O)cc5n4[C@@H]4C[C@H]4C(F)F)cc3F)n2)c(F)c1 [Example 720]	GLP-1R (Homo sapiens)	log10 of EC50	1.44
COCCn1c(C(C)c2ccc(-c3cccc(OCc4ccc(C#N)cc4F)n3)cc2)nc2ccc(C(=O)O)cc21 (single isomer, unassigned) [Example 418]	GLP-1R (Homo sapiens)	log10 of EC50	1.26
N#Cc1ccc(COc2cccc(-c3cc(F)c(Cc4nc5ccc(C(=O)O)cc5n4CCOc4ccccc4)cc3F)n2)c(F)c1 [Example 830]	GLP-1R (Homo sapiens)	log10 of EC50	2.65
N#Cc1ccc(COc2cccc(-c3cc(F)c(Cc4nc5ccc(C(=O)O)cc5n4CC45CC(CO4)C5)cc3F)n2)c(F)c1 [Example 898]	GLP-1R (Homo sapiens)	log10 of EC50	0.18
N#Cc1ccc(COc2ncc(F)c(-c3ccc(Cc4nc5c(F)cc(C(=O)O)cc5n4C[C@@H]4CCO4)cc3)n2)c(F)c1 [Example 882]	GLP-1R (Homo sapiens)	log10 of EC50	-0.74
N#CCC1(Cn2c(Cc3cc(F)c(-c4cccc(OCc5ccc(C#N)cc5F)n4)cc3F)nc3ccc(C(=O)O)nc32)CC1 [Example 273]	GLP-1R (Homo sapiens)	log10 of EC50	-0.28
COCCn1c(Cc2cc(F)c(-c3cccc(OCc4ccc(C#N)cc4F)n3)cc2C)nc2ccc(C(=O)O)cc21 [Example 674]	GLP-1R (Homo sapiens)	log10 of EC50	0.44
COC1(Cn2c(Cc3cc(F)c(-c4cccc(OCc5ccc(C#N)cc5F)n4)cc3F)nc3ccc(C(=O)O)cc32)CN(S(C)(=O)=O)C1 [Example 688]	GLP-1R (Homo sapiens)	log10 of EC50	3.09

====

# experimental-target: GLP-1R (Homo sapiens, UniProt P43220)
# run-description: GLP-1R activation: cAMP increase in CHO cells stably expressing GLP-1R
# Type: cell-based
# run-parameters: cAMP increase, CHO cells stably expressing GLP-1R, 10 point dose response, 30 minutes incubation; read-out: EC50
Note to self: use TRUE only for EC50 readings below 0.004 µM; a reading exactly at 0.004 µM still gets FALSE.

compound	category-label
COCCn1c(Cc2ccc(-c3cccc(OCc4ccc(C#N)cc4F)n3)c(F)c2C#N)nc2ccc(C(=O)O)cc21 [Example 391]	FALSE
COCCn1c(Cc2ccc(-c3ccc(F)c(OCc4ccc(Cl)cc4F)c3)cc2F)nc2ccc(C(=O)O)cc21 [Example 472]	FALSE
COCCn1c(Cc2ccc(-c3cccc(OCc4cccnc4OC)n3)cc2F)nc2ccc(C(=O)O)cc21 [Example 511]	FALSE
COCC1(Cn2c(Cc3cc(F)c(-c4cccc(OCc5ccc(C#N)cc5F)n4)cc3F)nc3ccc(C(=O)O)cc32)CC1 [Example 638]	TRUE
COCCn1c(Cc2ccc(-c3cccc(OCc4ccccc4SC(F)(F)F)n3)cc2F)nc2ccc(C(=O)O)cc21 [Example 248]	FALSE

====

Listed here are molecules together with their documented EC50.
# experimental-target: GLP-1R (Homo sapiens)
# run-description: GLP-1R activation: cAMP increase in CHO cells stably expressing GLP-1R
# Assay type: cell-based
# run-parameters: cAMP increase, CHO cells stably expressing GLP-1R, 10 point dose response, 30 minutes incubation; read-out: EC50
parameter: EC50 (nM)

molecule	quantitative-readout
N#Cc1ccc(COc2cccc(-c3ccc(Cc4nc5ccc(C(=O)O)cc5n4CC4(C(F)F)CC4)cc3F)n2)c(F)c1	0.45
Cn1c(Cc2ccc(-c3cccc(OCc4ccc(C#N)cc4F)n3)cc2F)nc2ccc(C(=O)O)cc21	146
N#Cc1ccc(COc2cccc(-c3cc(CO)c(Cc4nc5ccc(C(=O)O)cc5n4C[C@@H]4CCO4)cc3F)n2)c(F)c1	0.1
N#Cc1ccc(COc2ccnc(-c3cc(F)c(Cc4nc5ccc(C(=O)O)cc5n4C[C@@H]4CCO4)cc3F)n2)c(F)c1	0.16
N#Cc1ccc(COc2nc(-c3ccc(Cc4nc5c(F)cc(C(=O)O)cc5n4CC45CC(CO4)C5)c(F)c3)ccc2F)c(F)c1	2.17
COCCn1c(Cc2cc(F)c(-c3cccc(OCc4ccc(C#N)cc4)n3)cc2F)nc2c(F)cc(C(=O)O)cc21	135
COCCn1c(Cc2ccc(-c3cccc(OCc4ccc(C#N)cc4F)n3)cc2NS(C)(=O)=O)nc2ccc(C(=O)O)cc21	1030
COCCn1c(Cc2ccc(-c3cccnc3OCc3ccc(C#N)cc3F)c(F)c2)nc2ccc(C(=O)O)cc21	388
N#Cc1ccc(COc2cccc(-c3ccc(Cc4nc5c(F)cc(C(=O)O)cc5n4CC4(C(F)F)CC4)cc3F)n2)c(F)c1	0.76
N#Cc1ccc(COc2cccc(-c3cc(F)c(Cc4nc5ccc(C(=O)O)cc5n4CC45COCC4C5(F)F)cc3F)n2)c(F)c1 (stereo not shown)	1.01
N#Cc1ccc(COc2nccc(-c3ccc(Cc4nc5ccc(C(=O)O)cc5n4CC4(CF)CC4)cc3F)n2)c(F)c1	0.79
N#Cc1cc(F)c(COc2cccc(-c3cc(F)c(Cc4nc5ccc(C(=O)O)cc5n4C[C@@H]4CCO4)c(F)c3)n2)cc1F	0.11
COCCC1(Cn2c(Cc3cc(F)c(-c4cccc(OCc5ccc(C#N)cc5F)n4)cc3F)nc3ccc(C(=O)O)cc32)CC1	0.74
COCCn1c(Cc2ccc(-c3cccc(OCc4ccc(C#N)cc4F)n3)cc2C#CC2(CO)CC2)nc2ccc(C(=O)O)cc21	6.82
CO[C@H](C)Cn1c(Cc2ccc(-c3cccc(OCc4ccc(C#N)cc4F)n3)cc2F)nc2ccc(C(=O)O)cc21	7.73
COCCn1c(Cc2ccc(-c3nc(OCc4ccc(C#N)cc4F)ccc3C)cc2)nc2ccc(C(=O)O)cc21 (single isomer, unassigned)	1100
N#Cc1cc(F)c(COc2ncc(F)c(-c3cc(F)c(Cc4nc5c(F)cc(C(=O)O)cc5n4C[C@@H]4CCO4)cc3F)n2)cc1F	0.22
N#Cc1ccc(COc2cccc(-c3ccc(Cc4nc5ccc(C(=O)O)cc5n4Cc4cncnc4)c(F)c3)n2)c(F)c1	58.6
COCCn1c(Cc2ccc(-c3cccc(OCc4ncc(Cl)s4)n3)cc2F)nc2ccc(C(=O)O)cc21	33.3
N#Cc1ccc(COc2cccc(-c3ccc(Cc4nc5c(F)cc(C(=O)O)cc5n4CC4(C#N)CC4)c(F)c3)n2)c(F)c1	2.08
O=C(O)c1ccc2nc(Cc3ccc(-c4cccc(OCc5ccc(C(F)F)cc5F)n4)cc3F)n(C[C@@H]3CCO3)c2c1	0.18
COCCn1c(Cc2ccc(-c3cccc(OCc4ccc(CC#N)cc4)n3)cc2F)nc2ccc(C(=O)O)cc21	35.4
N#Cc1ccc(COc2ncc(F)c(-c3ccc(Cc4nc5c(F)cc(C(=O)O)cc5n4C[C@@H]4CCO4)c(F)c3)n2)c(F)c1	0.26
COCCn1c(Cc2ccc(-c3cccc(OCc4ccc(C#N)cc4F)n3)c(F)c2)nc2c(F)cc(C(=O)O)cc21	5.64
O=C(O)c1ccc2nc(Cc3c(F)cc(-c4cccc(OCc5ccc(C(F)F)cc5F)n4)c(F)c3F)n(Cc3ncco3)c2c1	0.33
